system: U-2 OS; assay: cell painting activity score (Mahalanobis distance from DMSO wells); higher = stronger morphological phenotype; conditions: 2.5 µM; 24 h
Think of 10 as a floor: if cell painting activity score stands on it or above, it is condition met; beneath it, condition not met.

Check out these entries, answers already filled in.
>>> label_class("CN1C(=O)[C@]23CC4=CC=C[C@H](O)[C@H]4N2C(=O)[C@@]1(CO)SS3")
"condition met"
>>> label_class("O=C(NNS(=O)(=O)c1ccccc1F)c1cc(F)cc(-c2ccccn2)c1")
"condition not met"
>>> label_class("CC(C)C[C@H](NC(=O)[C@H](Cc1ccccc1)NC(=O)c1cnccn1)B(O)O")
"condition met"
>>> label_class("Cc1csc(=NC2CCCCC2)n1/N=C/c1ccc(O)c(O)c1O")
"condition not met"
>>> label_class("CCCC1(c2ccccc2)NC(=O)N(CC(=O)N(C)Cc2c(F)cccc2Cl)C1=O (centres undefined)")
"condition not met"

Problem: Determine whether measured cell painting activity score meets or exceeds 10 for CC(=O)N[C@@H](CCCCNC(=O)CSCCNC(=O)CCNC(=O)[C@H](O)C(C)(C)COP(=O)(O)OP(=O)(O)OC[C@H]1O[C@@H](n2cnc3c(N)ncnc32)[C@H](O)[C@@H]1OP(=O)(O)O)C(N)=O.O=C(O)C(F)(F)F
Solution: condition not met

Problem: Determine whether measured cell painting activity score meets or exceeds 10 for O=C(O)C[C@@H]1C(=O)O[C@H]2[C@@H]3OC(=O)c4cc(O)c(O)c(O)c4-c4c(cc(O)c(O)c4O)C(=O)OC[C@H]2O[C@@H](OC(=O)c2cc(O)c(O)c(O)c2)[C@@H]3OC(=O)c2cc(O)c(O)c3c2[C@H]1[C@H](O)C(=O)O3
Solution: condition not met
